The measurements presented in this section are drawn from patent US9993570B2.

- target: PARP-1 (Homo sapiens, UniProt P09874)
- Sequence (P09874 whole entry): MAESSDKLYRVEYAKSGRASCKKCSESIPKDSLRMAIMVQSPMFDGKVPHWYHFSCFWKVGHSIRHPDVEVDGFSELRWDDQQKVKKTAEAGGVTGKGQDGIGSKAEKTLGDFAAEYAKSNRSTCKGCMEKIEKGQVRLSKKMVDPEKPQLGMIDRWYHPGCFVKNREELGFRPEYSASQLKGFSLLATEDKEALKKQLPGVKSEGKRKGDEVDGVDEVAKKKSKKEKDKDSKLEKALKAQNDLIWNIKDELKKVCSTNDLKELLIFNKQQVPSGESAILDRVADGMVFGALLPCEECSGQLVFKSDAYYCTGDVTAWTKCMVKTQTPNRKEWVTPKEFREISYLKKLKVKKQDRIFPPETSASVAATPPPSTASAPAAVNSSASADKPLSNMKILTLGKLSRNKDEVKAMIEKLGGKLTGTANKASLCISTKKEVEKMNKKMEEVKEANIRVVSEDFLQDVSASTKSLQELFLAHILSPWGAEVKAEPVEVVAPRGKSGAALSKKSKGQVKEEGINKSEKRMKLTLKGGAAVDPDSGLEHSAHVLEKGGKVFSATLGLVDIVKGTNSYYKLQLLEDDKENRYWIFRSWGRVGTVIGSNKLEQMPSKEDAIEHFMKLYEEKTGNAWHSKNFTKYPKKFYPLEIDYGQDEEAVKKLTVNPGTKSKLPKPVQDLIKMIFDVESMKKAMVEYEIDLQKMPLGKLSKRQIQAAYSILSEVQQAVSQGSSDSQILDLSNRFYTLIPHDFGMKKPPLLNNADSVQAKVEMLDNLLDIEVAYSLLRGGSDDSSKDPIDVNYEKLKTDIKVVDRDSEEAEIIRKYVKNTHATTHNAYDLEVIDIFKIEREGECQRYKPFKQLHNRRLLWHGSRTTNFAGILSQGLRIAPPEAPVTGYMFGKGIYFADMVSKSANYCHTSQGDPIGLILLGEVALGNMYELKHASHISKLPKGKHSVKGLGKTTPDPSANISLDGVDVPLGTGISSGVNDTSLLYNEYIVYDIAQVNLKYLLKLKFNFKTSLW
- assay-name: PARP-1 enzymatic activity assay (chemical quantification of NAD+)
- condition-description: read-out: IC50, inhibition of PARP-1; unit inferred
property: IC50 (nM)
API: value field is a number in nM; no unit string.

What value of IC50 has been recorded for this entry: NC(=O)c1cccc2[nH]c(-c3ccc(OCCF)cc3)nc12
10.8

* * *

- target: PARP-1 (Homo sapiens)
- assay-name: PARP-1 enzymatic activity assay (chemical quantification of NAD+)
property: IC50 (nM)
API: value field is a number in nM; no unit string.

Request: IC50, test system PARP-1 (Homo sapiens), entry O=C1NCCn2c(-c3ccc(OCCF)cc3)nc3cccc1c32
63
